experiment: Solubility test (shaken 30 min to saturation, content measured by HPLC); type: physicochemical; conditions: in 0.9wt% aqueous solution of sodium chloride, shaken for 30min to saturation, 30 min
METRIC_NAME: piceatannol 3'-O-glucoside solubility, 0.9% aqueous solution of Sodium chloride (mg/mL)

- COMPOUND: "OC[C@H]1O[C@@H](Oc2cc(/C=C/c3cc(O)cc(O)c3)ccc2O)[C@H](O)[C@@H](O)[C@@H]1O [Raw material sample, piceatannol 3'-O-glucoside]"
  ENDPOINT_RESULT: 4.67
- COMPOUND: "OC[C@H]1O[C@@H](Oc2cc(/C=C/c3cc(O)cc(O)c3)ccc2O)[C@H](O)[C@@H](O)[C@@H]1O [Sample 1, piceatannol 3'-O-glucoside]"
  ENDPOINT_RESULT: 14.36
- COMPOUND: "OC[C@H]1O[C@@H](Oc2cc(/C=C/c3cc(O)cc(O)c3)ccc2O)[C@H](O)[C@@H](O)[C@@H]1O [Sample 2, piceatannol 3'-O-glucoside]"
  ENDPOINT_RESULT: 14.19
- COMPOUND: "OC[C@H]1O[C@@H](Oc2cc(/C=C/c3cc(O)cc(O)c3)ccc2O)[C@H](O)[C@@H](O)[C@@H]1O [Sample 4, piceatannol 3'-O-glucoside]"
  ENDPOINT_RESULT: 14.31

* * *

experiment: Solubility test (shaken 30 min to saturation, content measured by HPLC); format: physicochemical; conditions: water, in water, shaken for 30min to saturation, read-out: piceatannol 3'-O-glucoside solubility, Water

- MOLECULE: "OC[C@H]1O[C@@H](Oc2cc(/C=C/c3cc(O)cc(O)c3)ccc2O)[C@H](O)[C@@H](O)[C@@H]1O [Sample 3, piceatannol 3'-O-glucoside]"
  solubility at 0.5 h (mg/mL): 15.2
